Target: Transient receptor potential cation channel subfamily V member 1 (Homo sapiens)
Sequence (Q8NER1 whole entry): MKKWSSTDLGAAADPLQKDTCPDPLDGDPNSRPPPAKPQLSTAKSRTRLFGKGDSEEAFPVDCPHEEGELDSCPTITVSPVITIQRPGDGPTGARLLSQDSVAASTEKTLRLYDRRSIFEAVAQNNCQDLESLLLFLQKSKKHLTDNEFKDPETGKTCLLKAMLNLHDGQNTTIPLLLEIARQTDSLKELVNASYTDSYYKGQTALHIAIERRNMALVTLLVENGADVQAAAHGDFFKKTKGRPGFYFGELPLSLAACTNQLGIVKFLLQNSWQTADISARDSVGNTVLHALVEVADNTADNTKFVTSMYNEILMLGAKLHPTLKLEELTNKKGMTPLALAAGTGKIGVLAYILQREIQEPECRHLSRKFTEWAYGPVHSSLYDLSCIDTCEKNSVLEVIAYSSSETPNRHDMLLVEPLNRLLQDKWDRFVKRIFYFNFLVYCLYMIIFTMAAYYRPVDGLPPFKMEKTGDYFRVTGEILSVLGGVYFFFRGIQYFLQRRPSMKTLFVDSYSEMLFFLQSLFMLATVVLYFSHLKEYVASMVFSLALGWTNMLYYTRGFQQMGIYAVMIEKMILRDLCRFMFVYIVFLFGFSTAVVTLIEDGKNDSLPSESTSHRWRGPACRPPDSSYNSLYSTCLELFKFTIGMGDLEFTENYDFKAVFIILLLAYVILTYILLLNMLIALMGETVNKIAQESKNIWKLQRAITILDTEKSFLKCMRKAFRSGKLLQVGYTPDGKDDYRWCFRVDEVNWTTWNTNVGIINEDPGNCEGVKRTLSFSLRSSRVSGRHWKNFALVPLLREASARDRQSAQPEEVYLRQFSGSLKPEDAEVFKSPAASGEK
Assay: Inhibition of capsaicin-induced calcium uptake by transient receptor potential vanilloid type 1 expressed in CHO cells
Format: functional, cell-based
Measured pIC50 by item
Convention used: pIC50 is expressed as -log10 of the molar concentration.

Examples with their reported pIC50 follow.
smilesNotation	studySystem	pIC50
O=C(/C=C/c1ccc(C(F)(F)F)nc1)Nc1ccc2c(c1)OCCO2	Transient receptor potential cation channel subfamily V member 1 (Homo sapiens)	6.06
CC(C)(C)c1ccc(/C=C/C(=O)Nc2ccc3c(c2)OCCO3)cn1	Transient receptor potential cation channel subfamily V member 1 (Homo sapiens)	7.00
CC(C)(C)c1ccc(CCC(=O)Nc2ccc3c(c2)OCCO3)cc1	Transient receptor potential cation channel subfamily V member 1 (Homo sapiens)	6.82

Form: compound = O=C(/C=C/c1ccc(F)cc1)Nc1ccc2c(c1)OCCO2 ; pIC50 = 6.00

Sourced from ChEMBL document CHEMBL1139498
